# key: entry, value: protein stability index
B1: GNB5 (parent)
chain: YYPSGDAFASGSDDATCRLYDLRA

# Variants of: B1
# ASSAY_PROTOCOL: protein stability index of a GFP-peptide fusion (GPS, HEK-293T) (PSI 1-6); higher = more stable;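 also: lentivirally expressed fusions sorted by FACS into six bins by GFP to DsRed ratio, PSI derived from sequencing read proportions per bin multiplied by bin number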
# CONDITION_NOTES: c terminus: a fixed tail appended

R23F | 2.27

Please look at this variant and report its protein stability index: `F8A` 4.18

Supply recorded protein stability index for `D6P` here. 2.81

Look up and report measured protein stability index for this entry: `Y20E` 3.15

Answer with the recorded protein stability index for the variant listed here: `T16A` 2.96
